Biological target: Cannabinoid receptor 2 (Mus musculus)
Sequence (P47936 whole entry): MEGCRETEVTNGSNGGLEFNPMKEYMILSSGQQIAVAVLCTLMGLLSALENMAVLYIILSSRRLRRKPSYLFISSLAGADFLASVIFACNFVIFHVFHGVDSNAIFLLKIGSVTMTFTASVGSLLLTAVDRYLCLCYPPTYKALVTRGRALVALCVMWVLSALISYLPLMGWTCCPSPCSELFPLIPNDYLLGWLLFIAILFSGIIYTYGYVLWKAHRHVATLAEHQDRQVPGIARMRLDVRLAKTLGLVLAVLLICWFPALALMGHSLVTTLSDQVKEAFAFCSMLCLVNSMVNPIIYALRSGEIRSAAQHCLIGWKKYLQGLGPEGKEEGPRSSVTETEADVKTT
Assay: Binding affinity towards mouse spleen cannabinoid receptor 2 in the presence of PMSF upon incubation for 15 min at 4 degree C in pH 7.4 using [3H]CP-55940
pKi: −log10 of the molar value.
readoutKind: pKi

>>> print(df.to_string())
                                givensmiles  readoutkind  endpointresult
0  O=C(CCC/C=C\C/C=C\C/C=C\C/C=C\CCCCCN=C=S)NC1CC1          pKi            7.31
1  CCCCC/C=C\C/C=C\C/C=C\C/C=C\CCCC(=O)NC1CC1          pKi            6.80
